Reported growth values follow for various molecules
System: HOP-62 NSCLC
assay_info: NCI-60 one-dose screen, 48 h (100 = growth as untreated, 0 = no growth, -100 = all killed)
assay_context: 10 µM unless noted
About 83,000 compounds went through this panel and 20% of them were active in at least one assay; those are over-represented in the sample as a whole. Activity calls are given as the source filed them. Rule for the calls: active = growth percent below 10; inactive = the rest.

Illustrative cases are given below, each with its answer.
[
  {
    "molecule": "COc1ccc(-c2cc(=O)c3c(OC)c4ccoc4cc3o2)cc1",
    "experimental_result": "108% (inactive)"
  },
  {
    "molecule": "CCCn1c(=O)[nH]c(N)c([C@H]2c3ccccc3Oc3[nH]c(=O)n(CCC)c(=O)c32)c1=O",
    "experimental_result": "90.8% (inactive)"
  },
  {
    "molecule": "c1ccc(-c2cc3n4c(-c5ccccc5)nn(-c5ccccc5)c4cnc-3n2)cc1",
    "experimental_result": "102% (inactive)"
  },
  {
    "molecule": "Cc1ccc2c(C(C[N+](=O)[O-])c3ccccc3)c(-c3ccccc3)[nH]c2c1 (configuration not stated)",
    "experimental_result": "20.2% [9.5 µM] (inactive)"
  },
  {
    "molecule": "CC[C@@H]1O[C@H](O[C@@H](c2cnc[nH]2)[C@H](NC(=O)c2nc([C@H](CC(N)=O)NC[C@@H](N)C(N)=O)nc(N)c2C)C(=O)N[C@H](C)[C@H](O)[C@H](C)C(=O)N[C@@H](C(=O)NCCc2nc(-c3nc(C(=O)NCCCCN=C(N)N)cs3)cs2)[C@@H](C)O)[C@H](O[C@@H]2O[C@H](CO)[C@H](O)[C@H](OC(N)=O)[C@@H]2O)[C@H](C)[C@@H]1C",
    "experimental_result": "15.6% (inactive)"
  }
]

Continue with the next molecule.
Noted for CSc1nc(Nc2cccc(NC(=O)CCl)c2)c(C#N)c(-c2cccc([N+](=O)[O-])c2)n1 : its growth reads 86.5% (inactive)

---

Property: growth; scope: individual compounds
Test system: U251 CNS
assay_info: NCI-60 one-dose screen, 48 h (100 = growth as untreated, 0 = no growth, -100 = all killed)
assay_context: 10 µM unless noted
Compounds without any hit were thinned out: in the full panel of roughly 83,000, 20% have a hit. Active and inactive are the calls of the source. Rule for the calls: active = growth percent below 10; inactive = the rest.

Look over these answered cases.
[
  {
    "compound": "COc1cc(/C=C/C(=O)Nc2cccnc2Nc2ccc(F)cc2)cc(OC)c1OC",
    "growth": "70.8% (inactive)"
  },
  {
    "compound": "O=C1OC(c2ccccc2)C(O)=C1c1ccccc1 (stereo not given)",
    "growth": "100% (inactive)"
  },
  {
    "compound": "Cc1cc(N[C@@H]2CCC[C@H](Nc3ccnc4cc(Cl)ccc34)C2)nc(N2CCCCCC2)n1",
    "growth": "-92.6% (active)"
  },
  {
    "compound": "C=CC(COC(c1ccccc1)(c1ccccc1)c1ccccc1)N(CC)CC (stereo not given)",
    "growth": "52.5% (inactive)"
  },
  {
    "compound": "N#Cc1cnn(-c2nc3c(Cl)cccc3s2)c1N",
    "growth": "88% (inactive)"
  }
]

For record COc1ccc(-n2nc(C)c3c(Nc4ccc(NC(=O)Nc5cccc(C(F)(F)F)c5)cc4)ncnc32)cc1 the listed growth is -49.7% (active)

Briefly, growth measured for COc1cc(-c2nc3ccccc3[nH]2)ccc1OCc1nnc(-c2ccc(CC(C)C)cc2)o1 : 69.5% (inactive)

Entry O=C1Nc2ccc(Br)cc2C12Oc1ccccc1C1CC(c3ccc(F)cc3)=NN12 (stereo not given) — recorded growth = 90.9% (inactive)

CCN(CC)c1ccc2c(c1)Oc1nc(N)c(C#N)c(N)c1C2Sc1ccc(SC)cc1 (stereo not given) yielded growth of -92% (active)
